Data origin, for the record: paper PMC4144951

Biological target: the molecule itself
Test: SEC-coupled SAXS; inline HPLC, Shodex KW404-4F, 20°C, 20 mM HEPES, 150 mM NaCl, pH 7.4, 2.5 mM DTT; 75 µl of 5 mg/ml HSPB6 or equivalent molarity loaded (ΔN11: 111 µl of 3.37 mg/ml); mass at the peak maximum from I0 and Porod volume; number of subunits of the oligomer
Please provide measured stoichiometry N for the entries that follow.
The reply should contain only the number, in subunits.

Enquiry: Fill in reported stoichiometry N for this entry: HSPB6 Q31A (natural protein, human, UniProt O14558 1-160, looked up, HSPB6, human, full-length protein with the point mutation Q31A; Mixture of dimers and what appear to be tetramers; source: E. coli NiCo21 (DE3) with pRARE2, purified (subtractive IMAC, anion exchange, SEC); not shown: SUMO, N-terminal, cleaved) MEIPVPVQPSWLRRASAPLPGLSAPGRLFDARFGEGLLEAELAALCPTTLAPYYLRAPSVALPVAQVPTDPGHFSVLLDVKHFSPEEIAVKVVGEHVEVHARHEERPDEHGFVAREFHRRYRLPPGVDPAAVTSALSPEGVLSIQAAPASAQAPPPAAAK
Return: 4.2

Enquiry: Fill in reported stoichiometry N for this entry: HSPB6 Δ61–70 (natural protein, human, UniProt O14558 1-160, looked up, HSPB6, human, full-length protein with residues 61-70 deleted; By SAXS closer to a tetramer than to a dimer; source: E. coli NiCo21 (DE3) with pRARE2, purified (subtractive IMAC, anion exchange, SEC); not shown: SUMO, N-terminal, cleaved) MEIPVPVQPSWLRRASAPLPGLSAPGRLFDQRFGEGLLEAELAALCPTTLAPYYLRAPSVPGHFSVLLDVKHFSPEEIAVKVVGEHVEVHARHEERPDEHGFVAREFHRRYRLPPGVDPAAVTSALSPEGVLSIQAAPASAQAPPPAAAK
Return: 3.5

Enquiry: Fill in reported stoichiometry N for this entry: HSPB6 Δ21–30 (natural protein, human, UniProt O14558 1-160, looked up, HSPB6, human, full-length protein with residues 21-30 deleted; source: E. coli NiCo21 (DE3) with pRARE2, purified (subtractive IMAC, anion exchange, SEC); not shown: SUMO, N-terminal, cleaved) MEIPVPVQPSWLRRASAPLPQRFGEGLLEAELAALCPTTLAPYYLRAPSVALPVAQVPTDPGHFSVLLDVKHFSPEEIAVKVVGEHVEVHARHEERPDEHGFVAREFHRRYRLPPGVDPAAVTSALSPEGVLSIQAAPASAQAPPPAAAK
Return: 2.2
